- Tested on: 485176-168-R4-J1-PDC spheroids with HUVEC/MSC, viability
- protocol text: Anticancer human tumor 485176-168-R4-J1-PDC patient-derived pancreatic adenocarcinoma cell line growth inhibition [GQUAD]
- experimental setup: second compound 0.1 µM; first compound 10 µM; active compounds read low
Label Condition met when viability, T/C is strictly below 10%; at or above that, label Condition not met.

Take a look at these entries with their results.
# compound, assayed system, classification
data = [
    ("COc1cc(C2c3cc4c(cc3C(OC3OC5COC(C)OC5C(O)C3O)C3COC(=O)C23)OCO4)cc(OC)c1O (stereo not given) + CN(C)c1ccc(Nc2c3ccc(NC(=O)CCN4CCCC4)cc3nc3cc(NC(=O)CCN4CCCC4)ccc23)cc1", "485176-168-R4-J1-PDC spheroids with HUVEC/MSC, viability", "Condition not met"),
    ("C=CCn1c(=O)c2cnc(Nc3ccc(N4CCN(C)CC4)cc3)nc2n1-c1cccc(C(C)(C)O)n1 + CN(C)c1ccc(Nc2c3ccc(NC(=O)CCN4CCCC4)cc3nc3cc(NC(=O)CCN4CCCC4)ccc23)cc1", "485176-168-R4-J1-PDC spheroids with HUVEC/MSC, viability", "Condition met"),
    ("COc1cc(C2c3cc4c(cc3C(OC3OC5COC(C)OC5C(O)C3O)C3COC(=O)C23)OCO4)cc(OC)c1O (stereo not given) + Cc1cnc(CNC(=O)c2c(=O)c3ccc(N4CCCN(C)CC4)nc3n3c2sc2ccccc23)cn1", "485176-168-R4-J1-PDC spheroids with HUVEC/MSC, viability", "Condition met"),
    ("CC1COCCN1c1cc(-c2ccnn2C)c2ccnc(-c3ccn[nH]3)c2n1 (stereo not given) + Cc1cnc(CNC(=O)c2c(=O)c3ccc(N4CCCN(C)CC4)nc3n3c2sc2ccccc23)cn1", "485176-168-R4-J1-PDC spheroids with HUVEC/MSC, viability", "Condition not met"),
]

With those in mind, consider the next compound.
Please check: viability, T/C for Cc1cccc(N(C)C(=O)C2C(O)CCN2c2nc(C)cc(C(F)(F)F)c2C#N)c1 (stereo not given) + CN(C)c1ccc(Nc2c3ccc(NC(=O)CCN4CCCC4)cc3nc3cc(NC(=O)CCN4CCCC4)ccc23)cc1 , strictly under 10% or not?
Condition not met

====

- Test system: 485176-168-R4-J1-PDC spheroids with HUVEC/MSC, viability
- protocol text: Anticancer human tumor 485176-168-R4-J1-PDC cell line growth inhibition [GQUAD]; active = viability on the fitted dose curve at most 10% of control; inactive = the rest;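 further: spheroids exposed to compounds for seven days before readout; percent viability relative to DMSO vehicle control wells as 100%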
- experimental setup: second compound 0.1 µM; first compound 10 µM
Just give me one of these, please: active, inactive

Test call for this compound, please: COc1ncnc(C2CC2)c1-c1ncc2cnn(Cc3ccc(-c4nc(C(F)(F)F)cn4C(C)C)cc3)c2n1 + Cc1[nH]c2ccc(F)cc2c1-c1nc2c3cccnc3c3ncccc3c2[nH]1
inactive

====

- System: 485176-168-R4-J1-PDC spheroids with HUVEC/MSC, viability
- protocol text: Anticancer human tumor 485176-168-R4-J1-PDC cell line growth inhibition [GQUAD];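 further: spheroids exposed to compounds for seven days before readout; percent viability relative to DMSO vehicle control wells as 100%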
- experimental setup: second compound 0.316 µM; first compound 1 µM; active compounds read low
readout type: viability, T/C

Observe how each entry below is paired with its result.
# molecule, viability, T/C
records = [
    ("C=CC(=O)N1CCN(c2nc(=O)n(-c3c(C)ccnc3C(C)C)c3nc(-c4c(O)cccc4F)c(F)cc23)C(C)C1 (stereo not given) + CN(C)c1ccc(Nc2c3ccc(NC(=O)CCN4CCCC4)cc3nc3cc(NC(=O)CCN4CCCC4)ccc23)cc1", "101%"),
    ("COc1cccc2c1C(=O)c1c(O)c3c(c(O)c1C2=O)CC(O)(C(=O)CO)CC3OC1CC(N)C(O)C(C)O1 (stereo not given) + Cc1[nH]c2ccc(F)cc2c1-c1nc2c3cccnc3c3ncccc3c2[nH]1", "23.6%"),
]

Given the entry CC1COCCN1c1cc(C2(O)CC3CCC(C2)O3)c2cnn(-c3ccn[nH]3)c2n1 (stereo not given) + Cc1cnc(CNC(=O)c2c(=O)c3ccc(N4CCCN(C)CC4)nc3n3c2sc2ccccc23)cn1 , report its measured viability, T/C.
9.55%

Given the entry COc1ncnc(C2CC2)c1-c1ncc2cnn(Cc3ccc(-c4nc(C(F)(F)F)cn4C(C)C)cc3)c2n1 + CN(C)c1ccc(Nc2c3ccc(NC(=O)CCN4CCCC4)cc3nc3cc(NC(=O)CCN4CCCC4)ccc23)cc1 , report its measured viability, T/C.
96%

Given the entry C=CC(=O)N1CCN(c2nc(=O)n(-c3c(C)ccnc3C(C)C)c3nc(-c4c(O)cccc4F)c(F)cc23)C(C)C1 (stereo not given) + Cc1cnc(CNC(=O)c2c(=O)c3ccc(N4CCCN(C)CC4)nc3n3c2sc2ccccc23)cn1 , report its measured viability, T/C.
72.1%

These entries and their values trace back to PubChem BioAssay AID2060509.
